- Target Desc: T1, AFP158/HLA-A*02:01 complex (human)
- T1 construct: flowed as analyte in SPR
- Experiment Description: SPR, crude scFv captured, pMHC analyte;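 further: pMHC analyte injected at three concentrations, association phase of one hundred seconds, then running buffer for dissociation, rates fitted from both curves, KD derived from the rates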
Measurement Name: pKd
Numbers only, as −log10 of the molar value.

[[record]]
binder = "AS170036 VL1VH1-57H98I (scFv, also called 08-AS170036 VL1VH1-57H98I) scFv: QSALTQPRSVSGSPGQSVTISCAGTSSDVGSENYVSWYQQHPGKAPKLMIYQVNKRASGVPDRFSGSKSGNTASLTISGLQAEDEADYYCASYRSSDINIVFGGGTKLTVLGGGGSGGGGSGGGGSEVQLVESGGGLVQPGGSLRLSCAASGFTFSSYAMSWVRQAPGKGLEWVSTINSGTGHPYYADSVKGRFTISRDNSKNTLYLQMNSLRAEDTAVYYCAKNFFDGSWFLGPPAMDYWGQGTLVTVSSHHHHHH"
measured_result = 7.74


Give recorded pKd. AS170036 VL1VH1 (scFv, Crude scFv from E. coli TG1 supernatant; also called AS170036 VL1VH1 scFv) scFv: QSALTQPRSVSGSPGQSVTISCAGTSSDVGSENYVSWYQQHPGKAPKLMIYQVNKRASGVPDRFSGSKSGNTASLTISGLQAEDEADYYCASYRSSDHNIVFGGGTKLTVLGGGGSGGGGSGGGGSEVQLVESGGGLVQPGGSLRLSCAASGFTFSSYAMSWVRQAPGKGLEWVSTINSGTGSPYYADSVKGRFTISRDNSKNTLYLQMNSLRAEDTAVYYCAKNFFDGSWFLGPPAMDYWGQGTLVTVSSHHHHHH 6.64
